The measured values listed here are drawn from patent US20190105337A1.

test method notes: clinical
experimental setup: human, in vivo, 250 mg, Cmax
observation type: Cmax (µg/mL)
Kindly answer with a numeric value in µg/mL, unit omitted.

Need Cmax, item O=C(O)C[C@@H]1CC[C@H](NC(=O)Cc2cccs2)B(O)O1 5.2

###

test method notes: Example 6: noncompartmental plasma pharmacokinetics after third dose of the Combination (2 g meropenem/2 g Compound I q8h)
experimental setup: both, human, plasma, intravenous, t1/2, Compound I 2 g q8h, 8-hour BAL Sampling Group
observation type: half-life (h)
Kindly answer with a numeric value in h, unit omitted.

Need half-life, item O=C(O)C[C@@H]1CC[C@H](NC(=O)Cc2cccs2)B(O)O1 1.18

###

test method notes: clinical
experimental setup: human, in vivo, 1000 mg, Cmax
Experimental: All infusions were administered over 3 hours. Intensive plasma and urine PK sampling was obtained after dosing and assayed using validated HPLC/MS methods.
observation type: Cmax (ng/mL)
Kindly answer with a numeric value in ng/mL, unit omitted.

Need Cmax, item O=C(O)C[C@@H]1CC[C@H](NC(=O)Cc2cccs2)B(O)O1 22000

###

test method notes: Example 6: noncompartmental plasma pharmacokinetics after third dose of the Combination (2 g meropenem/2 g Compound I q8h)
experimental setup: both, human, plasma, intravenous, Tmax, Compound I 2 g q8h, 4-hour BAL Sampling Group
observation type: Tmax

Need Tmax, item O=C(O)C[C@@H]1CC[C@H](NC(=O)Cc2cccs2)B(O)O1 2.98 h

###

test method notes: clinical
experimental setup: both, human, in vivo, Ratio AM to Plasma (total plasma concentration)
observation type: Kp at 3.25 h
Simply state the number, no unit and no words.

Need Kp at 3.25 h, item O=C(O)C[C@@H]1CC[C@H](NC(=O)Cc2cccs2)B(O)O1 0.165

###

test method notes: Example 6: noncompartmental plasma pharmacokinetics after third dose of the Combination (2 g meropenem/2 g Compound I q8h)
experimental setup: both, human, plasma, intravenous, t1/2, meropenem 2 g q8h, 8-hour BAL Sampling Group
observation type: half-life

Need half-life, item C[C@@H](O)[C@H]1C(=O)N2C(C(=O)O)=C(S[C@@H]3CN[C@H](C(=O)N(C)C)C3)[C@H](C)[C@H]12 [meropenem, Meropenem] 57.6 min

###

test method notes: clinical
experimental setup: both, human, in vivo, Concentration in Plasma
observation type: concentration at 4 h (ng/mL)
Kindly answer with a numeric value in ng/mL, unit omitted.

Need concentration at 4 h, item C[C@@H](O)[C@H]1C(=O)N2C(C(=O)O)=C(S[C@@H]3CN[C@H](C(=O)N(C)C)C3)[C@H](C)[C@H]12 [meropenem, Meropenem] 23800

###

test method notes: Example 1: pharmacokinetics of Compound I, single (SD) and multiple (MD, q8h 7 days) ascending doses, 3-hour IV infusion, healthy adult subjects
Format: in vivo, human
experimental setup: human, plasma, intravenous, 250 mg, 250 mg multiple dose
observation type: AUC(0-t) (ng·h/mL)
Kindly answer with a numeric value in ng·h/mL, unit omitted.

Need AUC(0-t), item O=C(O)C[C@@H]1CC[C@H](NC(=O)Cc2cccs2)B(O)O1 16300

###

test method notes: Example 1: pharmacokinetics of Compound I, single (SD) and multiple (MD, q8h 7 days) ascending doses, 3-hour IV infusion, healthy adult subjects
Type: in vivo, human
experimental setup: human, plasma, intravenous, 500 mg, 500 mg single dose; read-out: T1/2 (converted)
observation type: half-life (h)
Kindly answer with a numeric value in h, unit omitted.

Need half-life, item O=C(O)C[C@@H]1CC[C@H](NC(=O)Cc2cccs2)B(O)O1 1.35

###

test method notes: Example 6: noncompartmental plasma pharmacokinetics after third dose of the Combination (2 g meropenem/2 g Compound I q8h)
experimental setup: both, human, plasma, intravenous, Tmax, Compound I 2 g q8h, 8-hour BAL Sampling Group
observation type: Tmax (h)
Kindly answer with a numeric value in h, unit omitted.

Need Tmax, item O=C(O)C[C@@H]1CC[C@H](NC(=O)Cc2cccs2)B(O)O1 2.98

###

test method notes: Example 6: noncompartmental plasma pharmacokinetics after third dose of the Combination (2 g meropenem/2 g Compound I q8h)
experimental setup: both, human, plasma, intravenous, t1/2, meropenem 2 g q8h, 6-hour BAL Sampling Group
observation type: half-life (h)
Kindly answer with a numeric value in h, unit omitted.

Need half-life, item C[C@@H](O)[C@H]1C(=O)N2C(C(=O)O)=C(S[C@@H]3CN[C@H](C(=O)N(C)C)C3)[C@H](C)[C@H]12 1.12

###

test method notes: clinical
experimental setup: human, in vivo, 1000 mg, AUC(0-∞)
observation type: AUC(0-inf) (ng·h/mL)
Kindly answer with a numeric value in ng·h/mL, unit omitted.

Need AUC(0-inf), item O=C(O)C[C@@H]1CC[C@H](NC(=O)Cc2cccs2)B(O)O1 [Compound I] 77600

###

test method notes: clinical
experimental setup: both, human, in vivo, Plasma concentration at time of bronchoscopy and BAL
observation type: concentration at 3.25 h (µg/mL)
Kindly answer with a numeric value in µg/mL, unit omitted.

Need concentration at 3.25 h, item O=C(O)C[C@@H]1CC[C@H](NC(=O)Cc2cccs2)B(O)O1 [Compound I] 51.1

###

test method notes: Example 1: pharmacokinetics of Compound I, single (SD) and multiple (MD, q8h 7 days) ascending doses, 3-hour IV infusion, healthy adult subjects
Assay type: in vivo, human
experimental setup: human, plasma and urine, intravenous, 1250 mg, 1250 mg single dose
observation type: CL renal (mL/min)
Kindly answer with a numeric value in mL/min, unit omitted.

Need CL renal, item O=C(O)C[C@@H]1CC[C@H](NC(=O)Cc2cccs2)B(O)O1 [Compound I] 192

###

test method notes: Example 6: noncompartmental plasma pharmacokinetics after third dose of the Combination (2 g meropenem/2 g Compound I q8h)
experimental setup: both, human, plasma, intravenous, t1/2, meropenem 2 g q8h, 4-hour BAL Sampling Group
Experimental: A total of twenty-five (n=25) male and female subjects who met the study entry criteria and completed all phases of the pharmacokinetic study were included in this pharmacokinetic analysis. […] Peak plasma concentration (Cmax) and time to Cmax (Tmax) were read from the observed plasma concentration-time profile after the start of the intravenous infusion of the third Combination dose. […] The elimination rate constant (β) was determined by nonlinear least-squares regression. […]
observation type: half-life (h)
Kindly answer with a numeric value in h, unit omitted.

Need half-life, item C[C@@H](O)[C@H]1C(=O)N2C(C(=O)O)=C(S[C@@H]3CN[C@H](C(=O)N(C)C)C3)[C@H](C)[C@H]12 [meropenem, Meropenem] 1.07

###

test method notes: clinical
experimental setup: both, human, in vivo, Ratio of ELF to total Plasma concentration
observation type: Kp at 1.5 h
Simply state the number, no unit and no words.

Need Kp at 1.5 h, item C[C@@H](O)[C@H]1C(=O)N2C(C(=O)O)=C(S[C@@H]3CN[C@H](C(=O)N(C)C)C3)[C@H](C)[C@H]12 0.525

###

test method notes: Example 6: noncompartmental plasma pharmacokinetics after third dose of the Combination (2 g meropenem/2 g Compound I q8h)
experimental setup: both, human, plasma, intravenous, AUC0-8, meropenem 2 g q8h, 8-hour BAL Sampling Group
observation type: AUC(0-t) (µg·h/mL)
Kindly answer with a numeric value in µg·h/mL, unit omitted.

Need AUC(0-t), item C[C@@H](O)[C@H]1C(=O)N2C(C(=O)O)=C(S[C@@H]3CN[C@H](C(=O)N(C)C)C3)[C@H](C)[C@H]12 182

###

test method notes: clinical
experimental setup: human, in vivo, 1000 mg, Vss
observation type: Vd (L)
Kindly answer with a numeric value in L, unit omitted.

Need Vd, item O=C(O)C[C@@H]1CC[C@H](NC(=O)Cc2cccs2)B(O)O1 [Compound I] 21.4

###

test method notes: clinical
experimental setup: human, in vivo, 250 mg, Vss
Description: The combination of both drugs was administered on day 7. All drugs were infused over 3 hours. Plasma and urine samples were obtained and assayed using validated HPLC/MS methods.
observation type: Vd (L)
Kindly answer with a numeric value in L, unit omitted.

Need Vd, item O=C(O)C[C@@H]1CC[C@H](NC(=O)Cc2cccs2)B(O)O1 23.1

###

test method notes: Example 1: pharmacokinetics of Compound I, single (SD) and multiple (MD, q8h 7 days) ascending doses, 3-hour IV infusion, healthy adult subjects
Type: in vivo, human
experimental setup: human, plasma, intravenous, 2000 mg, 2000 mg single dose
observation type: Cmax (ng/mL)
Kindly answer with a numeric value in ng/mL, unit omitted.

Need Cmax, item O=C(O)C[C@@H]1CC[C@H](NC(=O)Cc2cccs2)B(O)O1 41600

###

test method notes: Example 1: pharmacokinetics of Compound I, single (SD) and multiple (MD, q8h 7 days) ascending doses, 3-hour IV infusion, healthy adult subjects
Assay type: in vivo, human
experimental setup: human, plasma, intravenous, 250 mg, 250 mg single dose; read-out: T1/2 (converted)
observation type: half-life (h)
Kindly answer with a numeric value in h, unit omitted.

Need half-life, item O=C(O)C[C@@H]1CC[C@H](NC(=O)Cc2cccs2)B(O)O1 1.17
